Origin of the recorded values: patent US11384062B2

# METHOD_NOTES: in vitro
# RUN_PARAMETERS: rat, microsomes, 0.75 h, 0.5 µM, pH 7.4
Parameter threshold = 80%. Response is met when Percent Remaining (%) 45 min meets or exceeds it, else not met.

[[record]]
compound = "[2H]C1([2H])NC([2H])([2H])C([2H])(c2ccc(-n3cc4cccc(C(N)=O)c4n3)cc2)C([2H])([2H])C1([2H])[2H] (racemic)"
group_label = "not met"

[[record]]
compound = "[2H]c1c([2H])c(C2([2H])C([2H])([2H])NC([2H])([2H])C([2H])([2H])C2([2H])[2H])c([2H])c([2H])c1-n1cc2cccc(C(N)=O)c2n1 (centres unmarked)"
group_label = "not met"

[[record]]
compound = "[2H]C1NC([2H])C(c2ccc(-n3cc4cccc(C(N)=O)c4n3)cc2)C([2H])C1[2H] (centres unmarked)"
group_label = "met"


input: Answer whether Percent Remaining (%) 45 min of `[2H]c1c([2H])c(-n2nc3c(C(N)=O)cccc3c2[2H])c([2H])c([2H])c1[C@@H]1CCCNC1` is greater than or equal to 80%.
output: not met

input: Decide: Percent Remaining (%) 45 min of [2H]c1c([2H])c(-n2cc3cccc(C(N)=O)c3n2)c([2H])c([2H])c1C1C([2H])NC([2H])C([2H])C1[2H] (centres unmarked) >= 80%?
output: met
